Molecular target: T1, BCMA on cells (293T cells transfected with BCMA; H929, MM.1S and U266 cell lines expressing BCMA) (human, UniProt Q02223 1-184)
T1 construct: H929, MM.1S and U266 carry the native protein; also called B-cell Maturation Antigen; TNFRSF17
T1 sequence: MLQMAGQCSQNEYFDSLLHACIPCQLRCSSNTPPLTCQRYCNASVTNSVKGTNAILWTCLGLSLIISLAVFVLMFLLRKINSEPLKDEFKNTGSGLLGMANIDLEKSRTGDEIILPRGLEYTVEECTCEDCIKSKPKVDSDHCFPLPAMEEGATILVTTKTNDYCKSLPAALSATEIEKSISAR
Assay: flow cytometry, H929 cells; further: test concentration or dose not given here
parameter: Positive (%)
Supply the numeric figure in %, leaving out any unit text.

Use the examples below as a reference point.
{"columns": ["binder", "Positive (%)"],
 "data": [
  ["SCT-Aa09(m/m) (antibody, V domains shown, Full IgG format: mouse IgG1 heavy chain constant region, mouse kappa light chain constant region) VH: QVQLQQSDAELVKPGASVKISCKVSGYTFTDHTIHWMKQRPEQGLEWIGYFYPRDDNTKYNEKFKGKATLTADRSSSTAYMQLNSLTSEDSAVYFCARWDYEGFDYWGQGTTLTVSS VL: DIVMTQSPATLSVTPGDRVSLSCRASQSIRDYLHWYQQKSHESPRLLIKYASQSISGIPSRFSGSGSGSDFTLSINSVEPEDVGVYYCQNGHSFPPTFGSGTKLEIK", 18.4],
  ["SCT-Aa13(h/h) (antibody, V domains shown, Full IgG format, chimeric: human IgG1 heavy chain constant region, human kappa light chain constant region) VH: QVQLQQSDAELVKPGASVKISCKVSGYTFTDYTIHWMKQRPEQGLEWIGYIYPRDGSTKYNEKFKGKATLTADKSSSTAYMQLNSLTSEDSAVYFCARWDYEGFDYWGQGTTLTVSS VL: DIVMTQSPATLSVTPGDRVSLSCRASQSISDYLHWYQQKSHESPRLLIKYASQSISGIPSRFSGSGSGSDFTLSINSVEPEDVGVYYCQNGHSFPPTFGSGTKLEIK", 96.5],
  ["SCT-Aa06(m/m) (antibody, V domains shown, Full IgG format: mouse IgG1 heavy chain constant region, mouse kappa light chain constant region) VH: EVQLQQSGPELVKPGNSVKISCKASGYSFTGYFMNWVMQSHGKSLEWIGRINPYNGDTFYNQKFKGKATLTVDKSSSTAHMELRSLTSEDSAVYYCARLDYTNYNSYPMDYWGQGTSVTVSS VL: DIQMTHTTSSLSASLGDRVTISCSASQGISNYLNWYLQKPDGTVKLLIYYTSNLHSGVPSRFSGSGSGTDFSLTISNLQPEDIATYYCQQYSKFPWTFGGGTKLEIK", 99.9]
]}

Answer with the recorded Positive (%) for the binder listed here: SCT-Aa05(h/h) (antibody, V domains shown, Full IgG format, chimeric: human IgG1 heavy chain constant region, human kappa light chain constant region) VH: EVKLLQSGGGLVQPGGSLKLSCAASGIDFSRYWMSWVRRAPGKGLEWIGEINPDSSTINYAPSLKDKFIISRDNAKNTLYLQMSKVRSEDTGLYYCASLYYDYEREYGMDYWGQGTSVTVSS VL: DIVMTQSQKFMSTSVGDRVSVTCKASQNVGTNVAWYQQKPGQSPKALIYSASYRFSGVPDRFTGSGSGTDFTLTISNVQSEDLAEYFCQQYNSYPYTFGGGTKLEIK
96.5

Answer with the recorded Positive (%) for the binder listed here: SCT-Aa11(h/h) (antibody, V domains shown, Full IgG format, chimeric: human IgG1 heavy chain constant region, human kappa light chain constant region) VH: QVQLQQSDAELVKPGASVKISCKVSGYTFTDHTIHWMKQRPEQGLEWIGYIFPRDGTTKFNEMFKGKATLTADKSSSTAYMELNSLTSEDSAVYFCARWDYEGFDYWGQGTTLTVSS VL: DIVMTQSPATLSVTPGDRVSLSCRASQSISDYLHWYQQKSHESPRLLIKYASQFISGIPSRFRGSGSGSDFTLSINSVEPEDVGVYYCQNGHSFPPTFGSGTKLEIK
53.7
